assay: Pharmacokinetic study of YCHD components and phase II metabolites in ANIT-induced cholestatic rats (UHPLC-MS/MS, sulfatase enzymolysis); format: in vivo, rat; conditions: rat, plasma, po, 12 g/kg; read-out: MRT (0-∞) (converted)
Checkbox rule: MRT inf lower than 10 h = label 1; MRT inf not lower than 10 h = label 0.

{"columns": ["compound", "label class"],
 "data": [
  ["COC(=O)C1=CO[C@@H](O[C@@H]2O[C@H](CO[C@@H]3O[C@H](CO)[C@@H](O)[C@H](O)[C@H]3O)[C@@H](O)[C@H](O)[C@H]2O)[C@@H]2C(CO)=CC[C@H]12 [genipin-1-β-D-gentiobiodide, Genipin-1-β-D-gentiobiodide]", "label 1"],
  ["O=C(/C=C/c1ccc(O)c(O)c1)O[C@@H]1C[C@](O)(C(=O)O)C[C@@H](O)[C@H]1O", "label 0"],
  ["O=C(O)C1=CO[C@@H](O[C@@H]2O[C@H](CO)[C@@H](O)[C@H](O)[C@H]2O)[C@@H]2C(CO)=CC[C@H]12", "label 1"],
  ["CC(=O)c1ccc(O)cc1 [4-hydroxyacetophenone, 4-Hydroxyacetophenone]", "label 0"],
  ["O=C(O)c1cc(O)c2c(c1)C(=O)c1cccc(O)c1C2=O", "label 1"]
]}
